- System: OVCAR-8
- Test Summary: NCI tumour cell line growth inhibition, 48 h
Activity calls are given as the source filed them. Cut-off read from the data, not from the text of the source: active = GI50 up to about 1.1 µM and inactive = higher.
Documented GI50 across a set of compounds

{"Molecule Smiles": "COC(=O)CCSC(=O)Nc1ccccc1Cl", "GI50": "> 100 µM (inactive)"}
{"Molecule Smiles": "O=S(=O)(Nc1nccs1)c1ccc(Nc2nc(-c3cccs3)nc3ccc(I)cc23)cc1", "GI50": "22.2 µM (inactive)"}
{"Molecule Smiles": "CC1(C)O[C@@H]2[C@@H](COC(=O)c3ccccc3)C[C@@H](C#N)[C@@H]2O1", "GI50": "> 100 µM (inactive)"}

---

- System: RXF 393
- Test Summary: NCI tumour cell line growth inhibition, 48 h
Calls of active or inactive are those of the source. Cut-off read from the data, not from the text of the source: active = GI50 up to about 1.1 µM and inactive = higher. Square brackets hold non-standard residues; d marks the D form. Peptide text beside a SMILES is read from it. * marks the point of attachment. X26 = COC1=CC(=O)N(C(=O)[C@@H](O*)C(C)C)[C@H]1Cc1ccccc1; Bn2Val = CC(C)[C@@H](C(=O)*)N(Cc1ccccc1)Cc1ccccc1; NMeV = CN[C@H](C(=O)O)C(C)C; dNMeA = CN[C@H](C)C(=O)O
Possible outcomes: class 1 for active, class 0 for inactive

{"Molecule": "COC1(C)C(=O)N2C1N(C(=O)OCc1ccccc1)CC2(C)C (centres undefined)", "Qualitative Label": "class 0"}
{"Molecule": "O=S(=O)(Nc1nccs1)c1ccc(Nc2nc(-c3cccs3)nc3ccc(I)cc23)cc1", "Qualitative Label": "class 0"}
{"Molecule": "Cc1oc2c(C)c3oc(=O)cc(C)c3cc2c1CNC(=O)[C@@H]1OCCOCCOCCOCCOCCOC1C(=O)O (some centres undefined)", "Qualitative Label": "class 0"}
{"Molecule": "O=Cc1c[nH]c2c(=O)[nH]cnc12", "Qualitative Label": "class 0"}
{"Molecule": "O=C(CNc1ccc(Cl)cc1)Nn1c(-c2ccccc2)nc2ccccc2c1=O", "Qualitative Label": "class 0"}
{"Molecule": "COc1c(OC)c(OC)c(-c2cc(=O)c3c(OC)c(OC)c(OC)c(OC)c3o2)c(OC)c1OC", "Qualitative Label": "class 0"}
{"Molecule": "CN(Cc1cc(Cl)c(Cl)cc1NC(=O)CN)[C@H]1CCCC[C@@H]1N1CCCC1", "Qualitative Label": "class 0"}
{"Molecule": "CC(=O)O[C@H]1C(=O)[C@@]2(C)[C@H]([C@H](OC(=O)c3ccccc3)[C@]3(O)C[C@H](OC(=O)[C@H](O)[C@@H](NC(=O)c4ccccc4)C4CCCCC4)C(C)=C1C3(C)C)[C@]1(OC(C)=O)CO[C@@H]1C[C@@H]2O", "Qualitative Label": "class 1"}
{"Molecule": "CCCCc1ccc(-n2sc3ncc(C)cc3c2=O)cc1", "Qualitative Label": "class 0"}
{"Molecule": "Cc1cc(C)cc(C(=N)c2ccccc2Cc2cccc3ccccc23)c1", "Qualitative Label": "class 0"}
{"Molecule": "COc1ccc([C@H]2[C@H]3COC(=O)[C@H]3C(C#N)=C3Sc4ccccc4N32)cc1", "Qualitative Label": "class 0"}
{"Molecule": "COc1cn2c(cc1=O)COc1ccc(-c3ccccc3)cc1-2", "Qualitative Label": "class 0"}
{"Molecule": "O=C(O)C1CCCN1Cc1c[nH]c2ccccc12 (centres undefined)", "Qualitative Label": "class 0"}
{"Molecule": "O=[N+]([O-])c1cc(Cl)ccc1S(=O)(=O)c1cc(Cl)cc2c1NCCC2", "Qualitative Label": "class 0"}
{"Molecule": "O=C1c2ccccc2-c2c1c(-c1ccc(F)cc1)nc1ccc3ccccc3c21", "Qualitative Label": "class 0"}
{"Molecule": "COC1=CC(=O)N(C(=O)[C@@H](OC(=O)[C@@H](C)N(C)C(=O)[C@@H]2CCCN2C(=O)[C@H](C(C)C)N(C)C(=O)[C@@H](NC(=O)[C@H](C(C)C)N(Cc2ccccc2)Cc2ccccc2)C(C)C)C(C)C)[C@H]1Cc1ccccc1 (Bn2Val-V[NMeV]P[dNMeA]-X26)", "Qualitative Label": "class 0"}
{"Molecule": "Cc1ccc(C(=O)O)cc1NC(=O)c1cc(/C=C/c2ccccc2)[nH]c(=S)n1", "Qualitative Label": "class 0"}
{"Molecule": "N#CC(c1cc2c(cc1Br)OCO2)N1CCOCC1 (centres undefined)", "Qualitative Label": "class 0"}
{"Molecule": "COc1ccc(Br)c(/C=N\\c2cccc3cc(OC)c(OC)cc23)c1", "Qualitative Label": "class 0"}
{"Molecule": "CC(=O)O[C@H]1C(=O)[C@@]2(C)[C@H]([C@H](OC(=O)c3ccccc3)[C@]3(O)C[C@H](OC(=O)[C@H](O)[C@@H](NC(=O)C(C)(O)C(C)O)c4ccccc4)C(C)=C1C3(C)C)[C@]1(OC(C)=O)CO[C@@H]1C[C@@H]2O (some centres undefined)", "Qualitative Label": "class 1"}
{"Molecule": "C/N=c1/ssc(=S)n1C(C)C", "Qualitative Label": "class 0"}
{"Molecule": "C[C@]12CC[C@H](OCCC#N)CC1=CC[C@@H]1C2CC[C@]2(C)/C(=N/OCCC#N)CCC12 (some centres undefined)", "Qualitative Label": "class 0"}
{"Molecule": "N#CC1CCCCC1NC1(C#N)CCCCC1 (centres undefined)", "Qualitative Label": "class 0"}
{"Molecule": "O=C(N(O)c1ccccc1Cl)C(O)(c1ccccc1)c1ccccc1", "Qualitative Label": "class 0"}
{"Molecule": "COc1cc2c(c3c1c(=O)c1ccccc1n3C)C=C([N+](=O)[O-])C(C)(C)O2", "Qualitative Label": "class 1"}
{"Molecule": "COc1ccc2c(c1)c(=O)c1c(NCCN(C)C)ccc3nnn2c31", "Qualitative Label": "class 1"}
{"Molecule": "COc1ccc(-c2cc(C(=O)Nc3ccc(C)c(C)c3)nc(NC#N)n2)cc1", "Qualitative Label": "class 0"}
{"Molecule": "O=C(O)CSc1ccccc1C(=O)O", "Qualitative Label": "class 0"}
{"Molecule": "CC(/C=C/C(=O)NO)=C\\C(C)C(=O)c1ccc(N(C)C)cc1 (centres undefined)", "Qualitative Label": "class 1"}
